Hey, just so you know, these numbers are from paper PMC6919601.

ASSAY_SYSTEM: DPAP1 (Plasmodium falciparum, UniProt Q8IIJ9)
Sequence (Q8IIJ9 370-599 limits assumed): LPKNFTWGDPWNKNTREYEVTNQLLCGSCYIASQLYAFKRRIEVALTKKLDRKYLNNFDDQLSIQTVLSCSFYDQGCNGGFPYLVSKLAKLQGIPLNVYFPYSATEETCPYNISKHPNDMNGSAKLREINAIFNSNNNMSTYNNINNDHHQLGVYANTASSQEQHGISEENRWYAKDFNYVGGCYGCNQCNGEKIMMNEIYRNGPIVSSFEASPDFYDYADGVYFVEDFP
Sequence (Q8IIJ9 28-209 limits assumed): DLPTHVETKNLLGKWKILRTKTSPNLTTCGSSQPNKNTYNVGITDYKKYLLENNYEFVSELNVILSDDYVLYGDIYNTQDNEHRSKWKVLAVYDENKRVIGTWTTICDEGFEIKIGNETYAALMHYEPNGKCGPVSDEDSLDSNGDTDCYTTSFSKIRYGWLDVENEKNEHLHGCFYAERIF
Sequence (Q8IIJ9 600-700 limits assumed): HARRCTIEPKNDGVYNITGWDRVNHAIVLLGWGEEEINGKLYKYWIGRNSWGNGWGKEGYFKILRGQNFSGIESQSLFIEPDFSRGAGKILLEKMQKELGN
ASSAY_TEXT: biochemical
Format: biochemical
MEASUREMENT_CONDITIONS: 10 μM HTS; 0 not defined
Here the recorded DPAP Primary hit (Hit = 1) is given for each entry.
When you answer, write just the number.

Solved cases (3 shown):
molecule="CCOc1ccc(C2CC(=O)N3CN(Cc4ccccc4)CSC3=C2C#N)cc1 (centres unmarked)" assay_system="DPAP1 (Plasmodium falciparum, UniProt Q8IIJ9)" readout_kind="DPAP Primary hit (Hit = 1)" endpoint_result=0
molecule="CN1CSC2=C(C#N)C(c3ccccc3)CC(=O)N2C1 (centres unmarked)" assay_system="DPAP1 (Plasmodium falciparum, UniProt Q8IIJ9)" readout_kind="DPAP Primary hit (Hit = 1)" endpoint_result=0
molecule="COc1ccc2ccccc2c1C1CC(=O)N2CN(Cc3ccccc3)CSC2=C1C#N (centres unmarked)" assay_system="DPAP1 (Plasmodium falciparum, UniProt Q8IIJ9)" readout_kind="DPAP Primary hit (Hit = 1)" endpoint_result=0

Inquiry: Requested field: DPAP Primary hit (Hit = 1). Item: N#CC1=C2SCN(Cc3ccccc3)CN2C(=O)CC1c1cccc2ccccc12 (centres unmarked)
Reply text: 1

Inquiry: Another molecule: COc1ccc(Br)cc1C1CC(=O)N2CN(Cc3ccccc3)CSC2=C1C#N (centres unmarked)
Reply text: 1

====

ASSAY_SYSTEM: DPAP1 (Plasmodium falciparum, UniProt Q8IIJ9)
ASSAY_TEXT: biochemical
Assay type: biochemical
MEASUREMENT_CONDITIONS: 10 μM HTS; 0 not defined
READOUT_KIND: DPAP Primary hit (Hit = 1)
When you answer, write just the number.

compound="Cc1ccccc1C1CC(=O)N2CN(C3CCCCC3)CSC2=C1C#N (centres unmarked) [SMDC170112]" assay_system="DPAP1 (Plasmodium falciparum, UniProt Q8IIJ9)" readout_kind="DPAP Primary hit (Hit = 1)" endpoint_result=0
compound="COc1ccc2ccccc2c1C1CC(=O)N2CN(C)CSC2=C1C#N (centres unmarked) [SMDC170175]" assay_system="DPAP1 (Plasmodium falciparum, UniProt Q8IIJ9)" readout_kind="DPAP Primary hit (Hit = 1)" endpoint_result=0
compound="COc1ccc(Br)cc1C1CC(=O)N2CN(C)CSC2=C1C#N (centres unmarked) [SMDC170145, COc1ccc(Br)cc1C2CC(=O)N3CN(C)CSC3=C2C#N]" assay_system="DPAP1 (Plasmodium falciparum, UniProt Q8IIJ9)" readout_kind="DPAP Primary hit (Hit = 1)" endpoint_result=1
compound="Cc1ccccc1C1CC(=O)N2CN(Cc3ccco3)CSC2=C1C#N (centres unmarked) [SMDC170102]" assay_system="DPAP1 (Plasmodium falciparum, UniProt Q8IIJ9)" readout_kind="DPAP Primary hit (Hit = 1)" endpoint_result=0
compound="COc1ccc(Br)cc1C1CC(=O)N2CN(Cc3ccco3)CSC2=C1C#N (centres unmarked) [SMDC170125]" assay_system="DPAP1 (Plasmodium falciparum, UniProt Q8IIJ9)" readout_kind="DPAP Primary hit (Hit = 1)" endpoint_result=1

Inquiry: Requested field: DPAP Primary hit (Hit = 1). Item: COc1ccc(C2CC(=O)N3CN(Cc4ccccc4)CSC3=C2C#N)c(OC)c1 (centres unmarked) [SMDC170154]
Reply text: 0

Inquiry: Another compound: CCc1ccc(C2CC(=O)N3CN(Cc4ccco4)CSC3=C2C#N)cc1 (centres unmarked) [SMDC170172]
Reply text: 0

Inquiry: Another compound: CCOc1ccc(C2CC(=O)N3CN(C)CSC3=C2C#N)cc1OC (centres unmarked) [SMDC170104, CCOc1ccc(cc1OC)C2CC(=O)N3CN(C)CSC3=C2C#N]
Reply text: 0
